Reference for the values: patent US8778926B2

# ASSAYED_TARGET: human GPR119 (Homo sapiens)
# Construct: expression vector for human GPR119 cDNA (Acc. No. NP_848566); expressed in transfected cells
# Sequence (Q8TDV5 1-335): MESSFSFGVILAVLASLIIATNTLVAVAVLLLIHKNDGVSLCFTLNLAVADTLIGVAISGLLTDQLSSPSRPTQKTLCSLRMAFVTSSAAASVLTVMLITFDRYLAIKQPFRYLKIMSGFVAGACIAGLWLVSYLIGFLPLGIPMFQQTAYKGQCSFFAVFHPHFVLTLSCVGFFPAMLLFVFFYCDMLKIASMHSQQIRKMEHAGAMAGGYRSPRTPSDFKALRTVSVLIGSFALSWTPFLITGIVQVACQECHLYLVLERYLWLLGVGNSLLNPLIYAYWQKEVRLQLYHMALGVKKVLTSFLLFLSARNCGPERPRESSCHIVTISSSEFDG
# ASSAY_NAME: AlphaScreen cAMP assay, activation of GPR119 in Min-6/hGPR119 cells
# Assay type: cell-based
# DETAILS: MIN6 cells stably transfected with human GPR119; intracellular cAMP; 45 minutes incubation at room temperature

| MOLECULE | EC50 [nM] |
| --- | --- |
| CC(C)(C)c1nc(N2CCC([C@H]3Cc4cc(C5=CCN(S(C)(=O)=O)CC5)ncc4O3)CC2)no1 (single isomer, unassigned) | 5 |
| CCCc1noc(N2CCC(C3Cc4cc(-c5ccc(CS(C)(=O)=O)cc5)ncc4O3)CC2)n1 (stereo not shown) | 38 |
| CCc1cnc(N2CCC(C3Cc4cc(-c5ccc(C(=O)N(C)CCOC)cc5)ccc4O3)CC2)nc1 (stereo not shown) | 20 |
| CC(C)c1noc(N2CCC(C3Cc4cc(-c5ccc(S(C)(=O)=O)cc5)ncc4O3)CC2)n1 (stereo not shown) | 32 |
| Cc1cnc(N2CCC([C@@H]3Cc4cc(C5=CCN(S(C)(=O)=O)CC5)ncc4O3)CC2)nc1 (single isomer, unassigned) | 29 |
| COc1cnc(N2CCC([C@H]3Cc4cc(-c5ccc(S(C)(=O)=O)cc5)ncc4O3)CC2)nc1 (single isomer, unassigned) | 18 |
| Cc1cnc(N2CCC(C3Cc4cc(-c5ccc(S(C)(=O)=O)cc5)ncc4O3)CC2)cn1 (stereo not shown) | 152 |
